As shown below, each of these compounds has a reported MIC value.
system: E. faecalis ATCC 29212

compound | unit string | MIC
COC(=O)NC[C@H]1CN(c2cc(F)c(N3CCN(C(=O)CNC(=O)c4ccc(Cl)nc4)CC3)c(F)c2)C(=O)O1 [Compound 130] | µg/mL | 0.25
COC(=O)NC[C@H]1CN(c2cc(F)c(N3CCN(C(=O)[C@H](C)NC(=O)c4ccc(F)nc4)CC3)c(F)c2)C(=O)O1 [Compound 196] | µg/mL | 0.5
COC(=O)NC[C@H]1CN(c2cc(F)c(N3CCN(C(=O)CNC(=O)c4cn5ccncc5n4)CC3)c(F)c2)C(=O)O1 [Compound 1] | µg/mL | 0.5
C[C@H](NC(=O)c1cn2cccnc2n1)C(=O)N1CCN(c2c(F)cc(N3C[C@H](CNC(=O)c4ccno4)OC3=O)cc2F)CC1 [Compound 190] | µg/mL | 0.25
CC(=O)NC[C@H]1CN(c2ccc(N3CCOCC3)c(F)c2)C(=O)O1 [Linezolid, reference compound] | µg/mL | 2
COC(=O)NC[C@H]1CN(c2ccc(N3CCN(C(=O)CNC(=O)c4cn5ccncc5n4)CC3)c(F)c2)C(=O)O1 [Compound 3] | µg/mL | 0.5
CC(=O)NC[C@H]1CN(c2cc(F)c(N3CCN(C(=O)[C@H](CC(C)C)NC(=O)c4cn5ccncc5n4)CC3)c(F)c2)C(=O)O1 [Compound 2] | µg/mL | 2
COC(=O)NC[C@H]1CN(c2cc(F)c(N3CCN(C(=O)[C@H](C)NC(=O)c4cn5ccncc5n4)CC3)c(F)c2)C(=O)O1 [Compound 5] | µg/mL | 0.5
CC(=O)NC[C@H]1CN(c2cc(F)c(N3CCN(C(=O)C4(NC(=O)c5cn6ccncc6n5)CCCC4)CC3)c(F)c2)C(=O)O1 [Compound 7] | µg/mL | 8
COC(=O)NC[C@H]1CN(c2ccc(N3CCCN(C(=O)CNC(=O)c4cn5ccncc5n4)CC3)c(F)c2)C(=O)O1 [Compound 25] | µg/mL | 1
CC(=O)NC[C@H]1CN(c2cc(F)c(N3CCN(C(=O)CNC(=O)c4cn5ccncc5n4)CC3)c(F)c2)C(=O)O1 [Compound 6] | µg/mL | 0.5
COC(=O)NC[C@H]1CN(c2cc(F)c(N3CCN(C(=O)[C@H](CO)NC(=O)c4cn5ccncc5n4)CC3)c(F)c2)C(=O)O1 [Compound 4] | µg/mL | 0.5
COC(=O)NC[C@H]1CN(c2cc(F)c(N3CCN(C(=O)[C@H](C)NC(=O)c4cccnc4F)CC3)c(F)c2)C(=O)O1 [Compound 197] | µg/mL | 0.5

Ref: patent US8841306B2
